# Target Desc: Thiol:disulfide interchange protein DsbA (Escherichia coli (strain K12))
# Assay Summary: Binding affinity to oxidized Escherichia coli DsbA by isothermal titration calorimetry assay
# Measurement Context: read-out: Kd
Measured Parameter: pKd
Scale: negative log10 of molar concentration, which is what pKd denotes.

Ac-PSPWATC-NH2; 4.74

Annotate the substance Ac-SPWATCDF-NH2 with its measured pKd.
5.66

State, in one line, measured pKd of Ac-PWATCDF-NH2
5.52

For the substance Ac-PSPWAACDF-NH2 , give its measured pKd value.
4.95

Specify measured pKd for Ac-PFATCDF-NH2 .
5.23

Provide pKd value for the following substance: Ac-PSPWATCDA-NH2
5.36

----------
# Target Desc: Thiol:disulfide interchange protein DsbA (Escherichia coli (strain K12), UniProt P0AEG4)
# Sequence (P0AEG4 whole entry): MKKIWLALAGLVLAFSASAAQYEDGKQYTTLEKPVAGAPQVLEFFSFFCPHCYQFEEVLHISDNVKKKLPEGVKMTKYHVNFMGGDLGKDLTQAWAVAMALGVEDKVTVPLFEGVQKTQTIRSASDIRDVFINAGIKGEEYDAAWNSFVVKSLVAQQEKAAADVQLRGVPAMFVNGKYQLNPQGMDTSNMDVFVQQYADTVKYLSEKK
# Assay Summary: Binding affinity to oxidized Escherichia coli DsbA by isothermal titration calorimetry assay
# Measurement Context: read-out: Kd
Square brackets hold non-standard residues; d marks the D form. Peptide text beside a SMILES is read from it. Dip = N[C@H](C(=O)O)C(c1ccccc1)c1ccccc1; Tic = O=C(O)[C@@H]1Cc2ccccc2CN1; Pip = O=C(O)[C@@H]1CCCCN1
Measured Parameter: pKd
# pKd = -log10(concentration in molar units)

// worked examples, pKd included
CC(=O)N1CCC[C@H]1C(=O)N[C@@H](CO)C(=O)N1CCC[C@H]1C(=O)N[C@H](C(=O)N[C@@H](C)C(=O)N[C@H](C(=O)N[C@@H](CS)C(N)=O)[C@@H](C)O)C(c1ccccc1)c1ccccc1 (Ac-PSP[Dip]ATC-NH2); 5.01
CC(=O)N1CCC[C@H]1C(=O)N[C@@H](CO)C(=O)N1CCCC[C@H]1C(=O)N[C@@H](Cc1c[nH]c2ccccc12)C(=O)N[C@@H](C)C(=O)N[C@H](C(=O)N[C@@H](CS)C(N)=O)[C@@H](C)O (Ac-PS[Pip]WATC-NH2); 4.92

Consider the record given below.
Find the measured pKd of CC(=O)N1CCC[C@H]1C(=O)N[C@@H](CO)C(=O)N1Cc2ccccc2C[C@H]1C(=O)N[C@@H](Cc1c[nH]c2ccccc12)C(=O)N[C@@H](C)C(=O)N[C@H](C(=O)N[C@@H](CS)C(N)=O)[C@@H](C)O (Ac-PS[Tic]WATC-NH2) and report it.
4.88

----------
Items are presented alongside their recorded pKd.
# Target Desc: Thiol:disulfide interchange protein DsbA (Escherichia coli (strain K12))
# Assay Summary: Binding affinity to oxidized Escherichia coli DsbA by isothermal titration calorimetry assay
# Measurement Context: read-out: Kd
Square brackets hold non-standard residues; d marks the D form. Peptide text beside a SMILES is read from it. hPhe = N[C@@H](CCc1ccccc1)C(=O)O
Interpret pKd as the negative base-10 log of the concentration measured in mol/L.

CC(=O)N1CCC[C@H]1C(=O)N[C@@H](CCc1ccccc1)C(=O)N[C@@H](C)C(=O)N[C@H](C(=O)N[C@@H](CS)C(=O)N[C@@H](CC(=O)O)C(=O)N[C@@H](CO)C(N)=O)[C@@H](C)O (Ac-P[hPhe]ATCDS-NH2); 5.08

Okay, next one:
Report pKd from Thiol:disulfide interchange protein DsbA (Escherichia coli (strain K12)) testing of CC(=O)N1CCC[C@H]1C(=O)N[C@@H](CO)C(=O)N1CCC[C@H]1C(=O)N[C@@H](CCc1ccccc1)C(=O)N[C@@H](C)C(=O)N[C@H](C(=O)N[C@@H](CS)C(N)=O)[C@@H](C)O (Ac-PSP[hPhe]ATC-NH2)
4.83

----------
# Target Desc: Thiol:disulfide interchange protein DsbA (Escherichia coli (strain K12))
# Assay Summary: Binding affinity to oxidized Escherichia coli DsbA by isothermal titration calorimetry assay
# Measurement Context: read-out: Kd
Measured Parameter: pKd
Remember the convention: pKd equals -log10 of concentration in molar.

A selection of reference data follows.
Ac-PSPWATCAF-NH2; 5.51
Ac-PSPWATCD-NH2; 4.97
Ac-ASPWATCDF-NH2; 5.57
Ac-PSAWATCDF-NH2; 5.26

Return reported pKd. Input substance: Ac-PSPAATCDF-NH2
5.24

State its pKd for this substance: Ac-PAPWATCDF-NH2
5.55

Recall and state the measured pKd for Ac-PSPWATCDF-NH2 .
5.54

Determine its reported pKd: Ac-PFATCDS-NH2
4.88
